Biological target: type II sPLA2 (Homo sapiens, UniProt P14555)
Sequence (P14555 21-144): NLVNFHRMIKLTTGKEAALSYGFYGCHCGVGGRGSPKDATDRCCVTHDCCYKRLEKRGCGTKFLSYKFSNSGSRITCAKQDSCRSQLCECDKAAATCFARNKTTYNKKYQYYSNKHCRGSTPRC
Test: Inhibition test of human secretory phospholipase A2, chromogenic assay, type II enzyme
Conditions: Inhibitory activity of type II sPLA2
Description: In order to identify and evaluate an inhibitor of recombinant human secretory phospholipase A2, the following chromogenic assay is utilized. The assay herein has been applied for high volume screening wherein 96 well microtiterplate is used. […] 5) Changes in absorbancy for 30 minutes for humane type I, type II, and type X enzyme and for 45 min for human type V enzyme, are measured by a plate reader, and inhibition activity was calculated (OD: 405 nm). […]
Item-by-item account of pIC50
Please note pIC50 is a logarithmic value: minus log10 of concentration in mol/L. Answer with that number alone.

compound	target-system	pIC50
NC(=O)C(=O)c1c2c(n3cccc(OCC(=O)O)c13)C(c1ccccc1)=CCC2 [Compound I-2]	type II sPLA2 (Homo sapiens, UniProt P14555)	7.35
NC(=O)C(=O)c1c2scc(-c3ccccc3)c2n2cccc(OCC(=O)O)c12 [Compound I-12]	type II sPLA2 (Homo sapiens, UniProt P14555)	6.75
NC(=O)C(=O)c1c2c(n3cccc(OCC(=O)O)c13)C(c1ccccc1)N(C(=O)C(F)(F)F)CC2 (stereo not drawn) [Compound I-8]	type II sPLA2 (Homo sapiens, UniProt P14555)	6.58
COC(=O)COc1cccn2c1c(C(=O)C(N)=O)c1scc(-c3ccccc3)c12 [Compound I-11]	type II sPLA2 (Homo sapiens, UniProt P14555)	5.25
NC(=O)C(=O)c1c2c(n3cccc(OCC(=O)O)c13)C(c1ccccc1)CCC2 (stereo not drawn) [Compound I-4]	type II sPLA2 (Homo sapiens, UniProt P14555)	7.27

Field: pIC50 (type II sPLA2 (Homo sapiens, UniProt P14555)). Entry: COC(=O)COc1cccn2c3c(c(C(=O)C(N)=O)c12)CCC=C3c1ccccc1 [Compound I-1] 6.10

Field: pIC50 (type II sPLA2 (Homo sapiens, UniProt P14555)). Entry: CC(=O)N1CCc2c(C(=O)C(N)=O)c3c(OCC(=O)O)cccn3c2C1c1ccccc1 (stereo not drawn) [Compound I-6] 5.34

Field: pIC50 (type II sPLA2 (Homo sapiens, UniProt P14555)). Entry: NC(=O)C(=O)c1c2c(n3ccnc(OCC(=O)O)c13)C(c1ccccc1)=CCC2 [Compound I-14] 7.47

Field: pIC50 (type II sPLA2 (Homo sapiens, UniProt P14555)). Entry: COC(=O)COc1cccn2c3c(c(C(=O)C(N)=O)c12)CCCC3c1ccccc1 (stereo not drawn) [Compound I-3] 5.80
